Cited source: ChEMBL document CHEMBL4002643

Tested on: IGROV-1
Experiment: Cytotoxicity against human IGROV1 cells assessed as growth inhibition after 48 hrs by SRB assay
Assay type: functional
Details: IGROV-1, 48 h
measured_quantity: GI50
Reply with a number, then the unit it belongs to.

Example results:
1. COc1cc2c(c(OC)c1OC)-c1cc3c(cc1COC2)OCO3 950 nM
2. COc1ccc2c(c1)COCc1cc(OC)c(OC)c(OC)c1-2 850 nM
3. COc1ccc2c(c1O)COCc1cc(OC)c(OC)c(OC)c1-2 630 nM

# next compound below
Query (compound): `COc1ccc2c(c1OP(=O)([O-])[O-])COCc1cc(OC)c(OC)c(OC)c1-2.[Na+].[Na+]` ; field requested: GI50
4070 nM

====

GI50 values by entry
Tested on: KM12
Assay: Cytotoxicity against human KM12 cells assessed as growth inhibition after 48 hrs by SRB assay
Type: functional
Details: KM12, 48 h
Note: unit nM is implicit; provide only the numeric part.

# returns recorded GI50 (system: KM12) for `COc1ccc2c(c1O)COCc1cc(OC)c(OC)c(OC)c1-2`
50

====

Tested on: A498
Test: Cytotoxicity against human A498 cells assessed as growth inhibition after 48 hrs by SRB assay
Type: functional
Details: A498, 48 h
GI50 values by entry
Note: unit µM is implicit; provide only the numeric part.

1) COc1ccc2c(c1)COCc1cc(OC)c(OC)c(OC)c1-2 0.17
2) COc1ccc2c(c1OP(=O)([O-])[O-])COCc1cc(OC)c(OC)c(OC)c1-2.[Na+].[Na+] 18.6
3) COc1cc2c(c(OC)c1OC)-c1cc3c(cc1COC2)OCO3 0.45

# next compound below
# returns recorded GI50 (system: A498) for `COc1ccc2c(c1O)COCc1cc(OC)c(OC)c(OC)c1-2`
3.02

====

GI50 values by entry
System: OVCAR-3
Test: Cytotoxicity against human OVCAR3 cells assessed as growth inhibition after 48 hrs by SRB assay
Format: functional
Details: OVCAR-3, 48 h
Note: unit nM is implicit; provide only the numeric part.

1) COc1ccc2c(c1OP(=O)([O-])[O-])COCc1cc(OC)c(OC)c(OC)c1-2.[Na+].[Na+] 280
2) COc1ccc2c(c1O)COCc1cc(OC)c(OC)c(OC)c1-2 210
3) COc1ccc2c(c1)COCc1cc(OC)c(OC)c(OC)c1-2 50

# returns recorded GI50 (system: OVCAR-3) for `COc1cc2c(c(OC)c1OC)-c1cc3c(cc1COC2)OCO3`
250

====

Test system: SNB-75
Assay: Cytotoxicity against human SNB75 cells assessed as growth inhibition after 48 hrs by SRB assay
Assay type: functional
Settings: SNB-75, 48 h
GI50 values by entry
Note: unit nM is implicit; provide only the numeric part.

Query (molecule): `COc1ccc2c(c1OP(=O)([O-])[O-])COCc1cc(OC)c(OC)c(OC)c1-2.[Na+].[Na+]` ; field requested: GI50
540

Query (molecule): `COc1ccc2c(c1O)COCc1cc(OC)c(OC)c(OC)c1-2` ; field requested: GI50
70

Query (molecule): `COc1cc2c(c(OC)c1OC)-c1cc3c(cc1COC2)OCO3` ; field requested: GI50
460

Query (molecule): `COc1ccc2c(c1)COCc1cc(OC)c(OC)c(OC)c1-2` ; field requested: GI50
90

====

Test system: MOLT-4
Assay: Cytotoxicity against human MOLT4 cells assessed as growth inhibition after 48 hrs by SRB assay
Format: functional
Settings: MOLT-4, 48 h
GI50 values by entry
Note: unit µM is implicit; provide only the numeric part.

1. COc1ccc2c(c1)COCc1cc(OC)c(OC)c(OC)c1-2 0.09

Query (compound): `COc1cc2c(c(OC)c1OC)-c1cc3c(cc1COC2)OCO3` ; field requested: GI50
0.47

Query (compound): `COc1ccc2c(c1O)COCc1cc(OC)c(OC)c(OC)c1-2` ; field requested: GI50
0.06

Query (compound): `COc1ccc2c(c1OP(=O)([O-])[O-])COCc1cc(OC)c(OC)c(OC)c1-2.[Na+].[Na+]` ; field requested: GI50
0.4

====

GI50 values by entry
Test system: SF-295
Test: Cytotoxicity against human SF295 cells assessed as growth inhibition after 48 hrs by SRB assay
Assay type: functional
Conditions: SF-295, 48 h
Note: unit nM is implicit; provide only the numeric part.

Query (compound): `COc1ccc2c(c1O)COCc1cc(OC)c(OC)c(OC)c1-2` ; field requested: GI50
270

====

pIC50 values by entry
Test system: K562
Assay: Cytotoxicity against human K562 cells assessed as growth inhibition after 5 days by MTT assay
Format: functional, cell-based
Settings: K562, 120 h
Please keep in mind that pIC50 is minus log10 of the molar concentration; only the number is needed.

molecule	pIC50
COc1cc2c(c(OC)c1OC)-c1cc3c(cc1COC2)OCO3	4.07
COc1ccc2c(c1O)COCc1cc(OC)c(OC)c(OC)c1-2	4.47
COc1ccc(/C=C\c2cc(OC)c(OC)c(OC)c2)cc1O	6.00
COc1ccc2c(c1OP(=O)([O-])[O-])COCc1cc(OC)c(OC)c(OC)c1-2.[Na+].[Na+]	6.64
COc1ccc2c(c1)COCc1cc(OC)c(OC)c(OC)c1-2	3.96
COc1cc2c(c(OC)c1OC)-c1ccc([N+](=O)[O-])cc1COC2	4.80
COc1cc2c(c(OC)c1OC)-c1ccc(N)cc1COC2	5.00
COc1ccc2c(c1OS(=O)(=O)C(F)(F)F)COCc1cc(OC)c(OC)c(OC)c1-2	6.60

Query (molecule): COc1ccc(/C=C\c2cc(OC)c(OC)c(OC)c2)cc1OP(=O)(O)O [FOSBRETABULIN DISODIUM] ; field requested: pIC50
6.14

====

Test system: UACC-62
Assay: Cytotoxicity against human UACC62 cells assessed as growth inhibition after 48 hrs by SRB assay
Assay type: functional
Conditions: UACC-62, 48 h
measured_quantity: GI50 (nM)
Note: unit nM is implicit; provide only the numeric part.

1. COc1cc2c(c(OC)c1OC)-c1cc3c(cc1COC2)OCO3 790

Query (compound): `COc1ccc2c(c1O)COCc1cc(OC)c(OC)c(OC)c1-2` ; field requested: GI50
1000

Query (compound): `COc1ccc2c(c1)COCc1cc(OC)c(OC)c(OC)c1-2` ; field requested: GI50
80

Query (compound): `COc1ccc2c(c1OP(=O)([O-])[O-])COCc1cc(OC)c(OC)c(OC)c1-2.[Na+].[Na+]` ; field requested: GI50
5500

====

GI50 values by entry
System: SF-268
Assay: Cytotoxicity against human SF268 cells assessed as growth inhibition after 48 hrs by SRB assay
Format: functional
Details: SF-268, 48 h
Note: unit µM is implicit; provide only the numeric part.

Example results:
1) COc1cc2c(c(OC)c1OC)-c1cc3c(cc1COC2)OCO3 1.32
2) COc1ccc2c(c1)COCc1cc(OC)c(OC)c(OC)c1-2 0.46
3) COc1ccc2c(c1O)COCc1cc(OC)c(OC)c(OC)c1-2 0.09

# next compound below
# returns recorded GI50 (system: SF-268) for `COc1ccc2c(c1OP(=O)([O-])[O-])COCc1cc(OC)c(OC)c(OC)c1-2.[Na+].[Na+]`
0.79

====

Test system: SK-MEL-2
Assay: Cytotoxicity against human SK-MEL-2 cells assessed as growth inhibition after 48 hrs by SRB assay
Format: functional
Conditions: SK-MEL-2, 48 h
GI50 values by entry
Note: unit nM is implicit; provide only the numeric part.

Example results:
1. COc1ccc2c(c1)COCc1cc(OC)c(OC)c(OC)c1-2 100
2. COc1cc2c(c(OC)c1OC)-c1cc3c(cc1COC2)OCO3 560
3. COc1ccc2c(c1O)COCc1cc(OC)c(OC)c(OC)c1-2 260

Query (molecule): `COc1ccc2c(c1OP(=O)([O-])[O-])COCc1cc(OC)c(OC)c(OC)c1-2.[Na+].[Na+]` ; field requested: GI50
5370

====

GI50 values by entry
Test system: SK-OV-3
Test: Cytotoxicity against human SKOV3 cells assessed as growth inhibition after 48 hrs by SRB assay
Assay type: functional
Conditions: SK-OV-3, 48 h
Note: unit nM is implicit; provide only the numeric part.

Example results:
1. COc1ccc2c(c1O)COCc1cc(OC)c(OC)c(OC)c1-2 70
2. COc1cc2c(c(OC)c1OC)-c1cc3c(cc1COC2)OCO3 470
3. COc1ccc2c(c1)COCc1cc(OC)c(OC)c(OC)c1-2 130

Query (compound): `COc1ccc2c(c1OP(=O)([O-])[O-])COCc1cc(OC)c(OC)c(OC)c1-2.[Na+].[Na+]` ; field requested: GI50
400
